For each record, write down the corresponding IC50.
biological target: human Bub1 (Homo sapiens (Human)); experiment: Bub1 high ATP kinase assay (TR-FRET); format: biochemical; conditions: read-out: Bub1 high ATP (2 mM) IC50; 2 mM ATP
Sequence (O43683 704-1085): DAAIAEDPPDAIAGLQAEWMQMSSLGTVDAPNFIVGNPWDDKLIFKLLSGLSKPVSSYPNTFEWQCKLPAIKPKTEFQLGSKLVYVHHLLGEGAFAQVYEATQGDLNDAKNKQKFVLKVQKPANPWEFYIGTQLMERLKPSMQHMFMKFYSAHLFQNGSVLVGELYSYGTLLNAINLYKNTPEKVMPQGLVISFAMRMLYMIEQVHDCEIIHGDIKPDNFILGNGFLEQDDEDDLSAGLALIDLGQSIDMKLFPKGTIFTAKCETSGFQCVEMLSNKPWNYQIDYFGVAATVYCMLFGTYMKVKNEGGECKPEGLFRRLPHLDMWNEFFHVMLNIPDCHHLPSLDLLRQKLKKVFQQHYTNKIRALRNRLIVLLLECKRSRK

Using the record for CC1(COc2cnccc2-c2[nH]c3c(c2Nc2cccc(Cl)c2OC(F)F)C(=O)NCC3)CCO1 (racemic) [Example 74] , report its IC50.
> 20 µM

Please give the result for "CCC1(COc2cnccc2-c2[nH]c3c(c2Nc2cccc(Cl)c2Cl)C(=O)NCC3)COC1" too.
> 5.7 µM

Please give the result for Cc1cccc(Nc2c(-c3ccncc3OCC3OCC3(C)C)[nH]c3c2C(=O)NCC3)c1Cl (single isomer, unassigned; (+)) [Example 59] too.
> 20 µM

Please give the result for COc1c(Cl)cccc1Nc1c(-c2ccncc2OCC2(C)CCN2C)[nH]c2c1C(=O)NCC2 (stereo not shown) too.
7.54 µM

Please give the result for COc1c(Cl)cc(F)cc1Nc1c(-c2ccncc2OCC2CCO2)[nH]c2c1C(=O)NCC2 (single isomer, unassigned) [Example 67] too.
> 20 µM

Please give the result for COc1c(Cl)cccc1Nc1c(-c2ccncc2OCC2(C)CCO2)[nH]c2c1C(=O)NCC2 (single isomer, unassigned; (-)) [Example 47] too.
8.86 µM

Please give the result for COc1c(F)cccc1Nc1c(-c2ccncc2OCC2OCC2(C)C)[nH]c2c1C(=O)NCC2 (single isomer, unassigned; (+)) [Example 54] too.
> 20 µM
